- System: K562
- protocolDetails: NCI tumour cell line growth inhibition, 48 h
Calls of active or inactive are those of the source. No stated cut-off is given here; in the data, active = GI50 up to about 1.1 µM and inactive = higher.
Would you mind answering with one of these outcomes? active, inactive

Recorded test outcome, item `O=C1c2cc3c(cc2CC12Cc1ccccc1C2)CCC3` inactive

Could you kindly confirm the outcome this assay logged for `CCc1ccc(NCc2cc(OC)c(OC)c(OC)c2)cc1` ? active

Which outcome was entered for the compound `CC(C)[N+]([O-])(CCCNc1c2ccccc2nc2cccc([N+](=O)[O-])c12)C(C)C` in this test? active

Hi, sorry to bother you, what did the test record for `Cc1cc(O)c2c(c1O)C(=O)c1c(O)ccc(O)c1C2=O` ? inactive

Each compound tested received a call. Report the one for `CC[C@@H](C)[C@H](NC(=O)[C@H](Cc1ccccc1)NCC(F)(F)F)C(=O)OC(C)(C)C` . inactive

Outcome logged for O=C1c2c(O)ccc(O)c2C(=O)c2c(NCCNC(=O)C(O)C(O)C(O)C(O)CO)ccc(NCCNC(=O)C(O)C(O)C(O)C(O)CO)c21 (configuration not stated) in this assay: active

So what was the verdict on `COc1ccc(-c2cc(=O)c3c(O)c(OC)c(OC)c(OC)c3o2)cc1OC` in this test? inactive

I'd appreciate the recorded outcome for `CC1=C(c2cc(C(=O)Nc3cccc(C(F)(F)F)c3)nc(NC#N)n2)Sc2ccccc2N1` from this test. inactive

Hello, I am checking results. What call was entered for `CC(C)[Si](OC1=C(C(=O)N(C)c2ccccc2Cl)CCCC1)(C(C)C)C(C)C` ? inactive

Answer briefly: the call reported for `COc1ccccc1/N=N/C(=N/NC(=O)c1ccc(C)cc1)c1ccc(N(CCC#N)CCC#N)cc1OC` in this assay. inactive

Please state the recorded outcome for this compound: CC1CN(c2cc3c(cc2F)c(=O)c(C(=O)O)cn3-c2ccc(F)cn2)CC(C)N1 (configuration not stated) inactive

What did this assay record as the result for `CN1C/C(=C\c2ccc(C(=O)O)cc2)C(=O)/C(=C/c2ccc(C(=O)O)cc2)C1` ? inactive

====

- Test system: PC-3
- protocolDetails: NCI tumour cell line growth inhibition, 48 h
Activity calls are given as the source filed them. No stated cut-off is given here; in the data, active = GI50 up to about 1.1 µM and inactive = higher.
Choose one outcome from this list and give only that: yes (1) for active, no (0) for inactive

Hey, what did the test say about COC(=O)C(Cc1c[nH]c2ccccc12)NC1=Nc2ccncc2S(=O)(=O)N1c1ccccc1 (stereo unspecified) ? no (0)

Lab log entry: CC1C[C@]2(C)C(=S)Nc3ccccc3[C@@H]2Nc2ccccc21 (stereo partly specified) — outcome as called in the assay? no (0)

# fetch the recorded call for COc1ccc(N2C(=O)C3c4[nH]c5ccccc5c4C4CCC(C(C)C)CC4C3C2=O)cc1 (stereo unspecified) here no (0)

Per the records of this test, what outcome belongs to `O=C(N/N=C\c1ccc2ccccc2c1)Nc1ccc([N+](=O)[O-])cc1` ? no (0)

What outcome does the record of this test show for CCN(CC)CCC(=O)O[C@H]1CC[C@H](CC(C)[C@H]2CC(=O)C(C)C=C(C)[C@H](OC(=O)CCN(CC)CC)C(OC)C(=O)[C@@H](C)CC(C)/C=C/C=C/C=C(C)C(OC)CC3CC[C@H](C)[C@](O)(O3)C(=O)C(=O)N3CCCCC3C(=O)O2)CC1OC (stereo partly specified) ? yes (1)

Which outcome was entered for the compound O=C1c2ccc(O)cc2OC(c2cc(O)c(O)c(O)c2)C1O (stereo unspecified) [DIHYDROBINETIN] in this test? no (0)
